Protocol text: Aqueous solubility of the compound at pH 2 at 0.1 to 10 mg
Assay type: physicochemical
Condition description: aqueous medium, dose 0.1-10 mg
Readout type: solubility (µg/mL)
All answers are understood in µg/mL, so give the number only.

# input So what's the measured solubility for this one? Cc1cc(C#N)cc(C)c1Oc1nc(Nc2ccc(-c3cn(S(=O)(=O)n4ccnc4)nn3)cc2)nc2ccsc12
# output 102

###

Protocol text: Cytotoxicity against human MT4 cells assessed as reduction in cell viability measured after 5 days by MTT assay
Assay type: toxicity, cell-based
Condition description: time 5 day
I'd be grateful if you could share measured CC50 at 120 h for these entries.

# input So what's the measured CC50 at 120 h for this one? Cc1cc(C#N)cc(C)c1Oc1nc(Nc2ccc(-c3cn(Cc4ccc(C(F)(F)F)cc4F)nn3)cc2)nc2ccsc12
# output 129 µM

# input So what's the measured CC50 at 120 h for this one? Cc1ccnc2c1NC(=O)c1cccnc1N2C1CC1 [NEVIRAPINE]
# output > 951 µM

# input So what's the measured CC50 at 120 h for this one? Cc1cc(C#N)cc(C)c1Oc1nc(Nc2ccc(-c3cn(Cc4ccc(B(O)O)cc4)nn3)cc2)nc2ccsc12
# output 13.4 µM

# input So what's the measured CC50 at 120 h for this one? Cc1cc(C#N)cc(C)c1Oc1nc(Nc2ccc(-c3cn(Cc4ccc(C(N)=O)cc4)nn3)cc2)nc2ccsc12
# output > 218 µM

# input So what's the measured CC50 at 120 h for this one? Cc1cc(C#N)cc(C)c1Oc1nc(Nc2ccc(-c3cn(Cc4ccc(S(C)(=O)=O)cc4)nn3)cc2)nc2ccsc12
# output > 206 µM

# input So what's the measured CC50 at 120 h for this one? Cc1cc(C#N)cc(C)c1Oc1nc(Nc2ccc(-c3cn(-c4ccc5c(c4)OCO5)nn3)cc2)nc2ccsc12
# output > 223 µM

###

Assay target: UniProtKB Q72547
Protocol text: Inhibition of HIV-1 reverse transcriptase at 0.267 uM incubated for 1 hrs in presence of biotin-labeled dNTPs by ELISA assay relative to control
I'd be grateful if you could share measured inhibition for these entries.
All answers are understood in %, so give the number only.

# input So what's the measured inhibition for this one? Cc1ccccc1Cn1cc(-c2ccc(Nc3nc(Oc4c(C)cc(C#N)cc4C)c4sccc4n3)cc2)nn1
# output 33.3

# input So what's the measured inhibition for this one? Cc1cc(C#N)cc(C)c1Oc1nc(Nc2ccc(-c3cn(CCc4ccccc4)nn3)cc2)nc2ccsc12
# output 27.1

# input So what's the measured inhibition for this one? Cc1cc(C#N)cc(C)c1Oc1nc(Nc2ccc(-c3cn(CC(=O)N4CCCC4)nn3)cc2)nc2ccsc12
# output 12.8

# input So what's the measured inhibition for this one? CCOC(=O)c1ccc(Cn2cc(-c3ccc(Nc4nc(Oc5c(C)cc(C#N)cc5C)c5sccc5n4)cc3)nn2)cc1
# output 60

# input So what's the measured inhibition for this one? Cc1cc(C#N)cc(C)c1Oc1nc(Nc2ccc(-c3cn(Cc4ccc(S(C)(=O)=O)cc4)nn3)cc2)nc2ccsc12
# output 51.9

# input So what's the measured inhibition for this one? Cc1cc(C#N)cc(C)c1Oc1nc(Nc2ccc(-c3cn(Cc4cccc(C#N)c4)nn3)cc2)nc2ccsc12
# output 24.7

# input So what's the measured inhibition for this one? Cc1cc(C#N)cc(C)c1Oc1nc(NC2CCN(Cc3ccc(S(N)(=O)=O)cc3)CC2)nc2ccsc12
# output 39.1

# input So what's the measured inhibition for this one? Cc1cc(C#N)cc(C)c1Oc1nc(Nc2ccc(-c3cn(-c4ccc(C(=O)O)cc4Cl)nn3)cc2)nc2ccsc12
# output 17.3

# input So what's the measured inhibition for this one? Cc1cc(C#N)cc(C)c1Oc1nc(Nc2ccc(-c3cn(Cc4cccc5ccccc45)nn3)cc2)nc2ccsc12
# output 35.9

# input So what's the measured inhibition for this one? CCOC(=O)Cn1cc(-c2ccc(Nc3nc(Oc4c(C)cc(C#N)cc4C)c4sccc4n3)cc2)nn1
# output 31.2

# input So what's the measured inhibition for this one? Cc1cc(C#N)cc(C)c1Oc1nc(Nc2ccc(-c3cn(CCN4C(=O)c5ccccc5C4=O)nn3)cc2)nc2ccsc12
# output 46.2

# input So what's the measured inhibition for this one? Cc1cccc(Cn2cc(-c3ccc(Nc4nc(Oc5c(C)cc(C#N)cc5C)c5sccc5n4)cc3)nn2)c1
# output 21

# input So what's the measured inhibition for this one? Cc1cc(C#N)cc(C)c1Oc1nc(Nc2ccc(-c3cn(Cc4ccc([N+](=O)[O-])cc4)nn3)cc2)nc2ccsc12
# output 1.6

# input So what's the measured inhibition for this one? COC(=O)Cn1cc(-c2ccc(Nc3nc(Oc4c(C)cc(C#N)cc4C)c4sccc4n3)cc2)nn1
# output 35.7

# input So what's the measured inhibition for this one? Cc1cc(C#N)cc(C)c1Oc1nc(Nc2ccc(-c3cn(C[S+]([O-])c4ccccc4)nn3)cc2)nc2ccsc12 (centres undefined)
# output 24.9

# input So what's the measured inhibition for this one? Cc1cc(C#N)cc(C)c1Oc1nc(Nc2ccc(-c3cn(Cc4ccc(C(F)(F)F)cc4)nn3)cc2)nc2ccsc12
# output 74.2

# input So what's the measured inhibition for this one? Cc1cc(C#N)cc(C)c1Oc1nc(Nc2ccc(-c3cn(-c4ccc(C(N)=O)cc4)nn3)cc2)nc2ccsc12
# output 66.9

# input So what's the measured inhibition for this one? Cc1cc(C#N)cc(C)c1Oc1nc(Nc2ccc(-c3cn(CC(=O)Nc4ccc(Br)cc4)nn3)cc2)nc2ccsc12
# output 4.1

# input So what's the measured inhibition for this one? Cc1cc(C#N)cc(C)c1Oc1nc(Nc2ccc(-c3cn(Cc4ccccc4C#N)nn3)cc2)nc2ccsc12
# output 0.2

# input So what's the measured inhibition for this one? COc1ccc(-n2cc(-c3ccc(Nc4nc(Oc5c(C)cc(C#N)cc5C)c5sccc5n4)cc3)nn2)cc1
# output 28

# input So what's the measured inhibition for this one? Cc1ccc(Cn2cc(-c3ccc(Nc4nc(Oc5c(C)cc(C#N)cc5C)c5sccc5n4)cc3)nn2)cc1
# output 3.5

# input So what's the measured inhibition for this one? Cc1cc(C#N)cc(C)c1Oc1nc(Nc2ccc(-c3cn(Cc4ccc(B(O)O)cc4)nn3)cc2)nc2ccsc12
# output 50.8

# input So what's the measured inhibition for this one? Cc1cc(C#N)cc(C)c1Oc1nc(Nc2ccc(-c3cn(-c4ccc(CO)cc4)nn3)cc2)nc2ccsc12
# output 34.7

# input So what's the measured inhibition for this one? Cc1cc(C#N)cc(C)c1Oc1nc(Nc2ccc(-c3cn(CC(=O)Nc4ccc(S(C)(=O)=O)cc4)nn3)cc2)nc2ccsc12
# output 23.4

Origin of values: ChEMBL document CHEMBL5329212
